Test system: MDA-MB-453
Test: normalised response (% of control), CellTox Green; higher = less cell death (100 = DMSO, 0 = benzethonium chloride kill control)
Conditions: incubation time: 72 h
Below, each entry is listed with its recorded normalised response.
Just the number please, in %, no unit attached.

Worked cases, normalised response given:
CN(C)C(=N)NC(=N)N [Metformin] (10000 nM): 80.9
CNC(=O)c1ccccc1Sc1ccc2c(/C=C/c3ccccn3)n[nH]c2c1 [Axitinib] (100 nM): 110
CC(=O)[C@]1(O)Cc2c(O)c3c(c(O)c2[C@@H](O[C@H]2C[C@H](N)[C@H](O)[C@H](C)O2)C1)C(=O)c1ccccc1C3=O [Idarubicin] (100 nM): 108

Query: Bench note: what normalised response did CC[C@H](CO)Nc1nc(NCc2ccccc2)c2ncn(C(C)C)c2n1 [Seliciclib] (10000 nM) show?
Result: 108

Query: Follow-up entry: CCNC(=O)c1noc(-c2cc(C(C)C)c(O)cc2O)c1-c1ccc(CN2CCOCC2)cc1 [NVP-AUY922] (1000 nM)
Result: 89

Query: Please give the result for C=CCN(/C=C1/C(=O)O[C@H](COC)[C@@]2(C)C1=C(O)C(=O)C1=C2[C@H](OC(C)=O)C[C@]2(C)C(=O)CC[C@@H]12)CC=C [Sonolisib] (10000 nM) too.
Result: 101

Query: Another molecule: CCNC(=O)CCC/C=C\C[C@@H]1[C@@H](/C=C/[C@@H](O)CCc2ccccc2)[C@H](O)C[C@@H]1O [Bimatoprost] (5500 nM)
Result: 98

Query: Quick one: Cc1cn(-c2cc(NC(=O)c3ccc(C)c(Nc4nccc(-c5cccnc5)n4)c3)cc(C(F)(F)F)c2)cn1 [Nilotinib] (1000 nM)
Result: 106

Query: Please give the result for CC(C)C[C@H](NC(=O)[C@@H](COC(C)(C)C)NC(=O)[C@H](Cc1ccc(O)cc1)NC(=O)[C@H](CO)NC(=O)[C@H](Cc1c[nH]c2ccccc12)NC(=O)[C@H](Cc1cnc[nH]1)NC(=O)[C@@H]1CCC(=O)N1)C(=O)N[C@@H](CCCNC(=N)N)C(=O)N1CCC[C@H]1C(=O)NNC(N)=O [Goserelin] (100 nM) too.
Result: 105

====

Here the recorded normalised viability is given for each entry.
Tested on: Hs578T
Assay: normalised viability (% of control), CellTiter-Blue; higher = more viable cells (about 100 = DMSO control)
Conditions: 100 nM; incubation time: 72 h
# value in %; strip the unit string

Example cases with answers are listed next.
COc1c2occc2cc2ccc(=O)oc12: 102
Cn1cc(C2=C(c3cn(C4CCN(Cc5ccccn5)CC4)c4ccccc34)C(=O)NC2=O)c2ccccc21: 68.7
COc1ccc(S(=O)(=O)Nc2cccnc2Nc2ccc(O)cc2)cc1: 88.1
CC(C)C[C@H](NC(=O)[C@@H](COC(C)(C)C)NC(=O)[C@H](Cc1ccc(O)cc1)NC(=O)[C@H](CO)NC(=O)[C@H](Cc1c[nH]c2ccccc12)NC(=O)[C@H](Cc1cnc[nH]1)NC(=O)[C@@H]1CCC(=O)N1)C(=O)N[C@@H](CCCNC(=N)N)C(=O)N1CCC[C@H]1C(=O)NNC(N)=O: 113
CC(C)(C)NC(=O)[C@H]1CC[C@H]2[C@@H]3CC[C@H]4NC(=O)C=C[C@]4(C)[C@H]3CC[C@]12C [Finasteride]: 105

Here is another compound to look at.
Query: Please give the measured normalised viability for this compound: CC(O)(CS(=O)(=O)c1ccc(F)cc1)C(=O)Nc1ccc(C#N)c(C(F)(F)F)c1 (stereo unspecified) [Bicalutamide]
Result: 93.6
